Data provenance: patent US7205306B2

Where a name gives a salt, the structure may show the parent alone.

# COMPOUND, melting point
rows = [
    ("CCC(CC)n1cc(C)nc(N2CCc3cc(Cl)cc(Cl)c32)c1=O [Example 451]", "137 to 139 °C"),
    ("CCC(C)Nc1cc(N2CCc3cc(OC)cc(Cl)c32)nc(C)n1 (centres unmarked) [Example 310]", "102 to 105 °C"),
    ("CC[C@@H](COC)n1cc(Cl)nc(N2CCc3cc(OC)cc(Br)c32)c1=O (as salt: hydrochloride) [Example 529]", "100 to 102 °C"),
    ("CCC(CC)Nc1nc(C)nc(N2CCc3cc(Cl)cc(Cl)c32)c1Br [Example 3]", "136 to 138 °C"),
    ("CCC(C)n1cc(Cl)nc(N2CCc3cc(Br)cc(Cl)c32)c1=O (centres unmarked) [Example 538]", "150 °C"),
    ("CC[C@@H](C1CC1)n1cc(Cl)nc(N2CCc3cc(OC)cc(C)c32)c1=O (as salt: hydrochloride) [Example 516]", "156 to 158 °C"),
    ("CCC(C)n1cc(Cl)nc(N2CCc3cc(OC)cc(C)c32)c1=O (centres unmarked) (as salt: hydrochloride) [Example 503]", "176 to 178 °C"),
    ("CC[C@H](C1CC1)n1cc(Cl)nc(N2CCc3cc(OC)cc(Cl)c32)c1=O (as salt: hydrochloride) [Example 508]", "118 to 120 °C"),
]
